ASSAY_METHOD_TEXT: compounds binding Alexa647 anti-His antibody – biochemical, small-molecule microarray, 635 nm fluorescence, artefact control for SMM control protein annotation, primary screen (AID 1128);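 note: score merges feature fluorescence with signal-to-noise for each printed compound spot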
STATED_CONDITIONS: higher = more signal
Each item that follows carries a reported composite z-score.
Output spec: single numeric token, no unit.

Q) Tell me measured composite z-score for COC(=O)[C@@]1(Cc2ccccc2)[C@H]2c3cc(C(=O)N4CCCC4)n(Cc4ccc(OC)c(OC)c4)c3C[C@H]2CN1C(=O)c1ccccc1 please.
A) 0.682

###

ASSAY_METHOD_TEXT: COS7 lysate on small-molecule microarray, probe aHis, 635 nm (AID 1123);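 note: z-score combines 667nm fluorescence intensity with signal-to-noise per printed compound spot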
STATED_CONDITIONS: COS7 cell lysate, fluorescence, higher = more signal
READOUT_KIND: composite z-score
Give the figure only, with no unit attached.

Record excerpt, results attached:
Q) Specify measured composite z-score for COc1ccccc1CN1C(=O)c2ccccc2[C@](Cc2ccccc2I)(C(=O)NCC(C)C)[C@@H]1c1ccc(CO)cc1 .
A) 1.97

Q) Input O=C(NCc1ccc(F)cc1)[C@H]1C[C@H]2C(=O)N3CCC[C@H]3C(=O)N2[C@H]1c1ccc(O)cc1 , output reported composite z-score.
A) -0.136

Q) Answer with the recorded composite z-score of CCCNC(=O)[C@@]1(Sc2ccc(C)cc2)CC(=O)N(Cc2ccccc2Cl)[C@@H]1c1ccc(CO)cc1I only.
A) 0.649

Could you now look at the following molecule, please?
Q) Query composite z-score for COCCOC(=O)N1C(=O)[C@@]2(c3cc(C#Cc4ccc(OC)cc4)ccc31)[C@H](c1ccc(OCCO)cc1)N1[C@H](c3ccccc3)[C@H](c3ccccc3)OC(=O)[C@H]1[C@@H]2C(=O)NC[C@H](O)c1ccccc1
A) 0.575

###

TGT: Torsin-1A-interacting protein 1 (Homo sapiens) (UniProt Q5JTV8)
Sequence (Q5JTV8 whole entry, looked up): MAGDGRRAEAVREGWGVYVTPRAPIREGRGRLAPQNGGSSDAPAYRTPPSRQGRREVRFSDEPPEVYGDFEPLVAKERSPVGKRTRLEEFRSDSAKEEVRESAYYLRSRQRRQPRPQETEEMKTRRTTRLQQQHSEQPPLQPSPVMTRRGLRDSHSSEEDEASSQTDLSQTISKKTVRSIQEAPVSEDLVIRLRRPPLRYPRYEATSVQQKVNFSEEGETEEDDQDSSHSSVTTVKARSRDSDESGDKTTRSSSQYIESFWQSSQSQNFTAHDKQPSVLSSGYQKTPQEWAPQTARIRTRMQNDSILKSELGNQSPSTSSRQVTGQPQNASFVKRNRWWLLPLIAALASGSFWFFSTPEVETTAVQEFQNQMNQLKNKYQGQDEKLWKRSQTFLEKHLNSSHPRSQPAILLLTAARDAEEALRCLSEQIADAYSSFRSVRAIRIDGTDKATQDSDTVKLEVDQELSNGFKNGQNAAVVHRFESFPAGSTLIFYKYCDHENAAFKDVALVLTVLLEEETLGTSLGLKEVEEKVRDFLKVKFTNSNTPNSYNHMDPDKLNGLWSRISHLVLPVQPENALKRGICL
ASSAY_METHOD_TEXT: compound microarray binding of lysate hLAP1 – cell lysate, small-molecule microarray, COS7 lysate, 635/667 nm fluorescence, primary screen (AID 1116)
STATED_CONDITIONS: 635 nm fluorescence, higher = more signal
READOUT_KIND: composite z-score
# answer = number (no unit)

Q) Look up and state reported composite z-score for C=C(/C(=C/C[C@@H](OC(C)=O)c1cccc(OCCO)c1)c1cnc2ccccc2c1)C(C)C
A) 1.02

Q) For the compound CC(C)(C)N1CC=CC23O[C@@H]4C=CCOC(=O)[C@@H]4[C@H]2C(=O)N(CCO)[C@@H]3C1=O (some centres not stated) , give its reported composite z-score.
A) -0.843

Q) Identify measured composite z-score associated with O=C1O[C@H](c2ccccc2)[C@H](c2ccccc2)N2[C@H]1[C@@H](C(=O)O)[C@]1(C(=O)Nc3ccc(C#CCCO)cc31)[C@H]2c1ccc(OCCO)cc1
A) 1.65

Q) Provide composite z-score value for the following compound: NC(=O)NCC#Cc1ccc2c(c1)[C@]1(C(=O)N2)[C@H](c2ccc(OCCO)cc2)N2[C@H](c3ccccc3)[C@H](c3ccccc3)OC(=O)[C@H]2[C@@H]1C(=O)O
A) 0.561

Q) Provide composite z-score value for the following compound: COc1ccc(C(=O)Nc2cccc(CN3C(=O)[C@@]4(O[C@@H](CC(=O)N5CCC[C@H]5CO)[C@H]([Si](C)(C)c5ccc(OC)cc5)[C@H]4C)c4ccccc43)c2)cc1
A) 1.72

Q) Supply measured composite z-score of CCOC(=O)C1=CC[C@@H](c2ccc(OC)cc2)N(S(=O)(=O)c2ccc(C)cc2)[C@H]1CC in your reply.
A) 0.482

Q) Note down composite z-score recorded for COCCOC(=O)N1C(=O)[C@@]2(c3cc(C#Cc4ccc(OC)cc4)ccc31)[C@H](c1ccc(OCCO)cc1)N1[C@H](c3ccccc3)[C@H](c3ccccc3)OC(=O)[C@H]1[C@@H]2C(=O)NC[C@H](O)c1ccccc1
A) 0.851

Q) Given the compound COC(=O)[C@@]1(Cc2ccccc2)[C@H]2c3cc(C(=O)N(C)C)n(CCSC(=N)N)c3C[C@H]2CN1C(=O)c1ccccc1 , write its reported composite z-score.
A) 3.21
